Where these numbers come from: patent US12077503B2

System: Kochia (Kochia scoparia)
Experiment: Test A postemergence
Type: in vivo
Conditions: 125 g ai/ha, postemergence; visual injury rating on 0 to 100 scale (0 no effect, 100 complete control), approx. 10 d
experimental readout: Kochia plant response rating

> print(dat)
                                   compound             target.system  quantitative.readout
1  O=C(Nc1cccc(F)c1F)C1C(=S)NCC1c1cccc(C(F)(F)F)c1 (centres unmarked)  Kochia (Kochia scoparia)                     0
2  COCc1cccc(C2CNC(=O)C2C(=O)Nc2cccc(F)c2F)c1 (centres unmarked)  Kochia (Kochia scoparia)                    30
3  O=C1NCC(c2ccnc(C(F)(F)F)c2)C1C(=O)Nc1ccccc1F (racemic)  Kochia (Kochia scoparia)                    20
4  O=C1NCC(c2cc(Br)cs2)C1C(=O)Nc1cccc(F)c1F (racemic)  Kochia (Kochia scoparia)                     0
5  Cc1ccc(C2CNC(=O)C2C(=O)Nc2ccc(F)c(C)c2F)cc1F (centres unmarked)  Kochia (Kochia scoparia)                     0

###

Tested on: Kochia (Kochia scoparia)
Experiment: Test A postemergence
Assay type: in vivo
Conditions: Bassia scoparia, post-emergence, 240 h, Postemergence, 31 g ai/ha; 0 is no effect, 100 is complete control; read-out: Kochia plant response rating (0 to 100 scale)
experimental readout: pest or weed control at 31 g/ha (%)

> print(dat)
                                   compound  quantitative.readout
1  CN1C[C@H](c2ccc3c(c2)OC(F)(F)O3)[C@@H](C(=O)Nc2ccc(F)nc2F)C1=O                    50
2  CN1C[C@H](c2ccc(C(F)F)cc2)[C@@H](C(=O)Nc2cccnc2F)C1=O                    50
3  CN1C[C@H](c2csc3c2CCC(F)(F)C3)[C@@H](C(=O)Nc2ccc(F)c(F)c2F)C1=O (racemic)                     0
4  CN1C[C@H](c2ccc(C#N)c(F)c2)[C@@H](C(=O)Nc2ccccc2F)C1=O                     0
5  Cc1c(F)cccc1NC(=O)[C@H]1C(=O)N(C)C[C@@H]1c1ccc(C(F)F)cc1                    20
6  COc1ccc([C@H]2CNC(=O)[C@@H]2C(=O)Nc2cccc(F)c2F)cc1                     0
7  CN1C[C@H](c2ccc(C(F)(F)F)cc2)[C@@H](C(=O)Nc2ccccc2-n2cccn2)C1=O                     0
8  CN1C[C@H](c2ccc(Cl)cc2)[C@@H](C(=O)Nc2cccc(F)n2)C1=O                    50

###

System: giant foxtail (Setaria faberi)
Assay: Test G Post-Emergence Protocol
Type: in vivo
Conditions: Setaria faberi, post-emergence, 312 h, 15.625 g ai/ha, evaluated after 13 days (100=total damage to plant; 0=no damage to plant), read-out: Foxtail, Giant damage rating
Source text: Seeds of corn (Zea mays), giant foxtail (Setaria faberi), barnyardgrass (Echinochloa crus-galli), ivy-leaved morning glory (Ipomoea hederacea), redroot pigweed (Amaranthus retroflexus) and velvetleaf (Abutilon theophrasti) were sown in standard soil in pots. […]
experimental readout: pest or weed control at 15.625 g/ha (%)

> print(dat)
                                    compound                   target.system  quantitative.readout
 1  CN1C[C@H](c2cccc(C(F)(F)F)c2)[C@@H](C(=O)Nc2cc(C#N)ccn2)C1=O (racemic) [Compound 1735]  giant foxtail (Setaria faberi)                     0
 2  Cc1cc(NC(=O)[C@@H]2C(=O)N(C)C[C@H]2c2ccc(C(F)(F)F)cc2)on1 (racemic) [Compound 1579]  giant foxtail (Setaria faberi)                     0
 3  CN1C[C@@H](c2ccc(C(F)(F)F)cc2)[C@H](C(=O)Nc2cccnn2)C1=O (racemic) [Compound 1577]  giant foxtail (Setaria faberi)                     0
 4  CN1C[C@@H](c2ccc(C(F)(F)F)cc2)[C@H](C(=O)Nc2nnc(C(F)(F)F)[nH]2)C1=O (racemic) [Compound 1550]  giant foxtail (Setaria faberi)                     0
 5  CN1C[C@@H](c2ccc(C(F)(F)F)cc2)[C@H](C(=O)Nc2nccc(C(F)(F)F)n2)C1=O (racemic) [Compound 1547]  giant foxtail (Setaria faberi)                     0
 6  CCc1cc([C@@H]2CN(C)C(=O)[C@H]2C(=O)Nc2cccc(F)c2C)ccc1Cl (racemic) [Compound 1804]  giant foxtail (Setaria faberi)                     0
 7  CN1C[C@@H](c2ccc(C(F)(F)F)cc2)[C@H](C(=O)Nc2cn(C)nn2)C1=O (racemic) [Compound 1527]  giant foxtail (Setaria faberi)                     0
 8  C=Cc1ccc([C@H]2CN(C)C(=O)[C@@H]2C(=O)Nc2ccccc2F)cc1 (racemic) [Compound 1457]  giant foxtail (Setaria faberi)                     0
 9  CN1C[C@@H](c2cnc(Cl)c(F)c2)[C@H](C(=O)Nc2cccc(F)c2F)C1=O (racemic) [Compound 1486]  giant foxtail (Setaria faberi)                    60
10  COc1cccc(NC(=O)[C@H]2C(=O)N(C)C[C@@H]2c2ccc(C(F)(F)F)cc2)c1C (racemic) [Compound 1446]  giant foxtail (Setaria faberi)                     0
11  CN1C[C@@H](c2ccc(C(F)(F)F)cc2)[C@H](C(=O)Nc2ncccn2)C1=O (racemic) [Compound 1564]  giant foxtail (Setaria faberi)                     0
12  CCOc1cc(F)cc(C2CN(C)C(=O)C2C(=O)Nc2cccc(F)c2F)c1 (centres unmarked) [Compound 1695]  giant foxtail (Setaria faberi)                    80
13  CN1C[C@H](c2cc(F)cc(F)c2)[C@@H](C(=O)Nc2cnccc2C(F)(F)F)C1=O (racemic) [Compound 1741]  giant foxtail (Setaria faberi)                    50
14  CN1C[C@@H](c2cncc(Cl)c2)[C@H](C(=O)Nc2cccc(F)c2F)C1=O (racemic) [Compound 1461]  giant foxtail (Setaria faberi)                    20

###

pest or weed control at 250 g/ha for assorted compounds
Tested on: redroot pigweed (Amaranthus retroflexus)
Assay: Test G Post-Emergence Protocol
Assay type: in vivo
Settings: Amaranthus retroflexus, post-emergence, 312 h, 250 g ai/ha, evaluated after 13 days, 100=total damage to plant, 0=no damage to plant, read-out: Pigweed, Redroot damage rating
experimental readout: pest or weed control at 250 g/ha

> print(dat)
                                   compound  result
1  CN1C[C@@H](c2ccc(C(F)(F)F)cc2)[C@H](C(=O)Nc2ccncc2F)C1=O (racemic) [Compound 1652]      0%
2  COc1c(Cl)ccc([C@H]2CN(C)C(=O)[C@@H]2C(=O)Nc2cccc(F)c2F)c1F [Compound 1773]     40%
3  CN1C[C@@H](c2cc(Br)cc(Oc3ccccc3)c2)[C@H](C(=O)Nc2cccc(F)c2F)C1=O (racemic) [Compound 1821]     70%
4  CN1C[C@H](c2ccc(C(F)(F)F)cc2)[C@@H](C(=O)Nc2cccc(F)[n+]2[O-])C1=O (racemic) [Compound 1814]      0%
5  CN1C[C@@H](c2cccc(C(F)(F)F)c2)[C@H](C(=O)Nc2cccnc2F)C1=O [Compound 1823]      0%
6  CN1C[C@H](c2cccc(C(F)(F)F)c2)[C@@H](C(=O)Nc2cccc(O)c2F)C1=O (racemic) [Compound 1806]      0%
7  Cc1cc([C@H]2CN(C)C(=O)[C@@H]2C(=O)Nc2cccc(F)n2)cc(C(F)(F)F)c1 (racemic) [Compound 1801]     40%
8  COc1cc(F)cc(C2CN(C)C(=O)C2C(=O)Nc2cccc(F)c2F)c1 (centres unmarked) [Compound 1699]     30%

###

Tested on: giant foxtail (Setaria faberi)
Assay: Test G Pre-Emergence Protocol
Assay type: in vivo
Settings: Setaria faberi, pre-emergence, 312 h, 62.5 g ai/ha, evaluated after 13 days, 100=total damage to plant, 0=no damage to plant, read-out: plant damage rating, Foxtail, Giant
experimental readout: pest or weed control at 62.5 g/ha (%)

> print(dat)
                                   compound               experimental.readout  quantitative.readout
1  Cc1nccc(NC(=O)[C@@H]2C(=O)N(C)C[C@H]2c2ccc(C(F)(F)F)cc2)c1C (racemic)  pest or weed control at 62.5 g/ha                     0
2  Cc1cnc(NC(=O)[C@@H]2C(=O)N(C)C[C@H]2c2ccc(C(F)(F)F)cc2)cn1 (racemic)  pest or weed control at 62.5 g/ha                     0
3  CN1C[C@@H](c2ccc(C(F)(F)F)cc2)[C@H](C(=O)Nc2ccnc(Cl)c2Cl)C1=O (racemic)  pest or weed control at 62.5 g/ha                     0
4  CN1C[C@@H](c2ccc(C(F)(F)F)cc2)[C@H](C(=O)Nc2cccc(F)c2)C1=O (racemic)  pest or weed control at 62.5 g/ha                    60
